Target: unrelated Fc-fused recombinant protein (negative control)
Assay: ELISA, bacterial lysate on plate-bound antigen, luminescence
quantity.measured: ELISA Fc Control (RLU)
Please respond with the number in RLU and leave the unit unwritten.

Please review the entries below; each comes with its answer.
[
  {
    "binder": "ISOP120BR5P1E6 (designed binder, not shown: small tags and cut ends, FN3 domain (Centyrin); tested as E. coli lysate) LPAPKNLVVSRVTEDSARLSWLEGANAEFDSFLIQYQESEKVGEAIVLTVPGSERSYDLTGLKPGTEYTVSIYGVHWVGPWYPVSNPLSAIFTT",
    "ELISA Fc Control (RLU)": 320
  },
  {
    "binder": "ISOP120ER5P1B6 (designed binder, not shown: small tags and cut ends, FN3 domain (Centyrin); tested as E. coli lysate) LPAPKNLVVSRVTEDSARLSWTAPDAAFDSFDIYYGEHWKLGEAIVLTVQGSERSYDLTGLKPGTEYLVTIYGVKGGQWSFPLSAIFTT",
    "ELISA Fc Control (RLU)": 160
  },
  {
    "binder": "ISOP120ER5P1A7 (designed binder, not shown: small tags and cut ends, FN3 domain (Centyrin); tested as E. coli lysate) LPAPKNLVVSRVTEDSARLSWTAPDAAFDSFNIGYYERIIPGEAIVLTVPGSERSYDLTGLKPGTEYSVLICGVKGGKGSIPLSAIFTT",
    "ELISA Fc Control (RLU)": 400
  }
]

In the following, a different binder is considered.
Looking for the measured ELISA Fc Control (RLU) of ISOP120FR5P1D7 (designed binder, not shown: small tags and cut ends) LPAPKNLVVSRVTEDSARLSWTAPDAAFDSFIIRYLEDISYGEAIVLTVPGSERSYDLTGLKPGTEYHVGIEGVKGGNVSWPLSAIFTT , can you help?
400
